experimental system: Vasoactive intestinal polypeptide receptor 2 (Homo sapiens)
Sequence (whole entry): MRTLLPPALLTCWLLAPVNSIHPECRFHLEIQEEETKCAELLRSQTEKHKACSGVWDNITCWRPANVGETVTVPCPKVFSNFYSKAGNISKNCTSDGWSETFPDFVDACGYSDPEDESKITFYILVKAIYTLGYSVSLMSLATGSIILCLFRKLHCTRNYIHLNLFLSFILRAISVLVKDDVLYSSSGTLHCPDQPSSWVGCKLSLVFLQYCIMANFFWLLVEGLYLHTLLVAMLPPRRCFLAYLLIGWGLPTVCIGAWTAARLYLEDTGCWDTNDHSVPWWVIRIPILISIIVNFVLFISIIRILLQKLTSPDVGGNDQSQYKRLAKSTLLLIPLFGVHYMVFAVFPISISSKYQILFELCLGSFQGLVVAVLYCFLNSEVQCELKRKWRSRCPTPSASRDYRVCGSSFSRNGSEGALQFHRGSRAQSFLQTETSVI
method summary: Antagonist activity at recombinant human N-terminal signal peptide/FLAG epitope-tagged VIPR2 expressed in HEK293 cells co-expressing CAMYEL assessed as inhibition of VIP-induced cAMP accumulation at 0.5 uM preincubated for 5 mins with luciferin, coelenterazine H followed by VIP addition measured after 5 mins by BRET assay relative to control
Type: functional, cell-based
Answer each item with its documented inhibition.
Numbers only, in %.

Look over these answered cases.
{"compound": "CC(=O)Nc1ccc(S(=O)(=O)NC[C@H](C[C@@H](Cc2ccccc2)C(=O)N[C@H]2c3ccccc3C[C@H]2OC(C)=O)OC(C)=O)cc1", "result unit": "%", "inhibition": -8.7}
{"compound": "CCCCNC(=O)[C@@H](Cc1ccccc1)C[C@H](O)CNS(=O)(=O)c1ccc([N+](=O)[O-])cc1", "result unit": "%", "inhibition": -1.5}
{"compound": "O=C(NCc1ccccc1)[C@@H](Cc1ccccc1)C[C@H](O)CNS(=O)(=O)c1ccc([N+](=O)[O-])cc1", "result unit": "%", "inhibition": -1}

Answer for every listed entry: what is its inhibition? The entries follow.
1. COc1ccc(S(=O)(=O)NC[C@@H](O)C[C@@H](Cc2ccccc2)C(=O)N[C@H]2c3ccccc3C[C@H]2O)cc1OC
2. CCNC(=O)[C@H](Cc1ccccc1)C[C@H](O)CNS(=O)(=O)c1ccc([N+](=O)[O-])cc1
3. O=C(NC[C@@H](O)C[C@@H](Cc1ccccc1)C(=O)N[C@H]1c2ccccc2C[C@H]1O)c1ccc([N+](=O)[O-])cc1

Key:
1: 21.1; 2: -7.1; 3: 14

Answer for every listed entry: what is its inhibition? The entries follow.
1. O=C(N[C@H]1c2ccccc2C[C@H]1O)[C@H](Cc1ccccc1)C[C@H](O)CNS(=O)(=O)c1ccc(C(=O)N2CCCCC2)cc1
2. CCN(CC)C(=O)c1ccc(S(=O)(=O)NC[C@@H](O)C[C@@H](Cc2ccccc2)C(=O)N[C@H]2c3ccccc3C[C@H]2O)cc1
3. CNC(=O)c1ccc(S(=O)(=O)NC[C@@H](O)C[C@@H](Cc2ccccc2)C(=O)N[C@H]2c3ccccc3C[C@H]2O)cc1
4. CNc1ccc(S(=O)(=O)NC[C@@H](O)C[C@@H](Cc2ccccc2)C(=O)N[C@H]2c3ccccc3C[C@H]2O)cc1
5. CC1CCC(NC(=O)[C@@H](Cc2ccccc2)C[C@H](O)CNS(=O)(=O)c2ccc([N+](=O)[O-])cc2)CC1 (some centres not stated)
6. CC(=O)Nc1ccc(S(=O)(=O)NC[C@H](C[C@@H](Cc2ccccc2)C(=O)N[C@H]2c3ccccc3C[C@H]2O)OC(C)=O)cc1
7. CC(C)(C)c1ccc(S(=O)(=O)NC[C@@H](O)C[C@@H](Cc2ccccc2)C(=O)N[C@H]2c3ccccc3C[C@H]2O)cc1

Key:
-5.3
2.5
13.8
-0.9
-0.7
-4.3
9.7

Answer for every listed entry: what is its inhibition? The entries follow.
1. O=C(NN1CCCCC1)[C@@H](Cc1ccccc1)C[C@H](O)CNS(=O)(=O)c1ccc([N+](=O)[O-])cc1
2. CC(C)CNc1ccc(S(=O)(=O)NC[C@@H](O)C[C@@H](Cc2ccccc2)C(=O)N[C@H]2c3ccccc3C[C@H]2O)cc1

Key:
1: 9.2; 2: 21.6

Answer for every listed entry: what is its inhibition? The entries follow.
1. O=C(N[C@H]1c2ccccc2C[C@H]1O)[C@H](Cc1ccccc1)C[C@H](O)CNS(=O)(=O)c1cccc([N+](=O)[O-])c1
2. Cc1cc(S(=O)(=O)NC[C@@H](O)C[C@@H](Cc2ccccc2)C(=O)N[C@H]2c3ccccc3C[C@H]2O)c(C)cc1Cl
3. CC(C)c1ccc(S(=O)(=O)NC[C@@H](O)C[C@@H](Cc2ccccc2)C(=O)N[C@H]2c3ccccc3C[C@H]2O)cc1
4. Cc1ccc([N+](=O)[O-])cc1S(=O)(=O)NC[C@@H](O)C[C@@H](Cc1ccccc1)C(=O)N[C@H]1c2ccccc2C[C@H]1O
5. O=C(N[C@H]1c2ccccc2C[C@H]1O)[C@H](Cc1ccccc1)C[C@H](O)CNS(=O)(=O)c1ccccc1C(F)(F)F
6. O=C(NCCc1cccc(Cl)c1)[C@@H](Cc1ccccc1)C[C@H](O)CNS(=O)(=O)c1ccc([N+](=O)[O-])cc1
7. O=C([C@H](Cc1ccccc1)C[C@H](O)CNS(=O)(=O)c1ccc([N+](=O)[O-])cc1)N1CCCCC1

Key:
[18.4, 20.6, 36.5, 10.9, 23, 9.3, -4.8]
